# system name: T1, GPIIb/IIIa (SEQ ID NOs: 23 and 24) (human, UniProt P08514 32-994; P05106 27-716)
# T1 construct: also called GPIIb/IIIa complex
# T1 sequence (P08514 32-994 limits assumed, chain 1 of 2): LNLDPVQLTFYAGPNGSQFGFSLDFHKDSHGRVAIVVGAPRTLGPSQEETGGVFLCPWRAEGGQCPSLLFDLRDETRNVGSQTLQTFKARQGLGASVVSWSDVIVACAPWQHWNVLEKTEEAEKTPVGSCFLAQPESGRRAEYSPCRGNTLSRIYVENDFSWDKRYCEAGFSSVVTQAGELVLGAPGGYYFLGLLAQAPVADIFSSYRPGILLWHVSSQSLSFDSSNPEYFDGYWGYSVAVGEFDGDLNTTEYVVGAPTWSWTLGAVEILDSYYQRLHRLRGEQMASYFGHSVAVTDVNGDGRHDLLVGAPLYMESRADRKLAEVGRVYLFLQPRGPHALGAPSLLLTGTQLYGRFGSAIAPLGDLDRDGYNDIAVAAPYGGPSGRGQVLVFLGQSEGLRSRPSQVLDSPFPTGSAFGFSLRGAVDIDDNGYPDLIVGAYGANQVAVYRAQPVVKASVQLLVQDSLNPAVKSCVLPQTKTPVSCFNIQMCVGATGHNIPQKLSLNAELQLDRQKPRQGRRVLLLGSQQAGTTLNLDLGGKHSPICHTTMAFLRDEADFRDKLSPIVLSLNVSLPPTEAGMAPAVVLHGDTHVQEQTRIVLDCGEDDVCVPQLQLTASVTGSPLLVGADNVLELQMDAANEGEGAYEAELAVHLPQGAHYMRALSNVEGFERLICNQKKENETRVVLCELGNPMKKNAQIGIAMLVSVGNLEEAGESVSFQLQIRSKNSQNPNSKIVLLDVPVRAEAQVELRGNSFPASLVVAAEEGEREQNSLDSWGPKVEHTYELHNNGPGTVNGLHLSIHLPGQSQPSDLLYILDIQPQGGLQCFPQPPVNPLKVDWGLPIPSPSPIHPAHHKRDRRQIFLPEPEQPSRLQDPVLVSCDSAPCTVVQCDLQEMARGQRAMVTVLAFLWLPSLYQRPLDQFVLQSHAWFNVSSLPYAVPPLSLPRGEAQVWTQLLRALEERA
# T1 sequence (P05106 27-716 limits assumed, chain 2 of 2): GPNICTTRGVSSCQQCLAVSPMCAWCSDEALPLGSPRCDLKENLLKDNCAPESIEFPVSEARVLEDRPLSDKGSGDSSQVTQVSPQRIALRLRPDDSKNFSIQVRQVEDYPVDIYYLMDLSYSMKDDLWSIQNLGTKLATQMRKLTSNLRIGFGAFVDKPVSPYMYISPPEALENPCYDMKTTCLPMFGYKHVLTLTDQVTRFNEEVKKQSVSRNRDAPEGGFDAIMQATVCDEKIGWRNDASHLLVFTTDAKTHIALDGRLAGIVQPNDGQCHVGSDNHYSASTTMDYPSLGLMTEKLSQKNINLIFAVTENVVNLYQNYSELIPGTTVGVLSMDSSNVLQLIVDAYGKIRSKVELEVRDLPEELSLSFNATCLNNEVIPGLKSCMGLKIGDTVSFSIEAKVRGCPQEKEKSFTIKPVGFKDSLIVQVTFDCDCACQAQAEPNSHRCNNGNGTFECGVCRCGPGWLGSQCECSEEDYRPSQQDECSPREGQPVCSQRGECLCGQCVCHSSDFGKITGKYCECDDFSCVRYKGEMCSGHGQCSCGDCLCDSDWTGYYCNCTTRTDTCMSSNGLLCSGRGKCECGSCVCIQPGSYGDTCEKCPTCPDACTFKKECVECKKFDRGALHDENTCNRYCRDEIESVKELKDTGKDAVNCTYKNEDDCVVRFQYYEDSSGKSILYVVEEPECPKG
# experimental details: Bio-Layer Interferometry (OctetRed), monovalent format, yeast-purified Fab; apparent dissociation rate Kdis
value kind: koff
Note to self: number, then unit, no commentary.

[in] Which measured koff value corresponds to affinity matured h34D10 Fab VH109/VL0 (Fab, V domains shown, Yeast-purified Fab) VH: EVQLVESGGGLVKPGGSLRLSCAASGFTFSAYAMSWVRQAPGKGLVWVASISSGGTTDYPDSVKRQFTISRDNAKNTLYLQMNSLRAEDTAVYYCTRGGDYGYALDYWGQGTLVTVSS VL: EIVMTQSPATLSVSPGERATLSCRASSSVNYMYWYQQKPGQAPRLLIYYTSNLAPGIPARFSGSGSGTEFTLTISSLQSEDFAVYYCQQFSSSPWTFGQGTKVEIK ?
[out] 0.031 s⁻¹

[in] What value of koff has been recorded for this entry: affinity matured h34D10 Fab VH100/VL0 (Fab, V domains shown, Yeast-expressed, protein A purified, then made into Fab) VH: EVQLVESGGGLVKPGGSLRLSCAASGFTFGAYAMSWVRQAPGKGLVWVASISSGGTTYYPDSVKRQFTISRDNAKNTLYLQMNSLRAEDTAVYYCTRGGDYSYALDYWGQGTLVTVSS VL: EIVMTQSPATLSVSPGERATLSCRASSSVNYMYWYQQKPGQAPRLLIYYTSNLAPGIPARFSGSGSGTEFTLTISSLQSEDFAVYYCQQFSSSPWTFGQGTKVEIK
[out] 0.00822 s⁻¹

[in] Can you share its koff? I mean this binder: affinity matured h34D10 Fab VH118/VL0 (Fab, V domains shown, Yeast-purified Fab) VH: GVQLVESGGGLVKPGGSLRLSCAASGFTFSAYAMSWVRQAPGKGLVWVASISSGGTTYYPDSVKRQFTISRDNAKNTLYLQMNSLRAEDTAVYYCTRGGDYGYALDYWGQGALVTVSS VL: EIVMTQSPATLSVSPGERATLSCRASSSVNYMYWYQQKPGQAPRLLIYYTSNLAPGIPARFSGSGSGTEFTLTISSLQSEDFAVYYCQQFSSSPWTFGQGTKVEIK
[out] 0.0478 s⁻¹

[in] Bench note: what koff did affinity matured h34D10 Fab VH103/VL0 (Fab, V domains shown, Yeast-purified Fab) VH: EVQLVESGGGLVKPGGSLRLSCAASGFTFSAYAMSWVRQAPGKGLVWVASISSGGTTYYPDSVKRQFTISRDNAKNTLYLQVNSLRAEDTAVYYCTRGGDYSYALDYWGQGTLVTVSS VL: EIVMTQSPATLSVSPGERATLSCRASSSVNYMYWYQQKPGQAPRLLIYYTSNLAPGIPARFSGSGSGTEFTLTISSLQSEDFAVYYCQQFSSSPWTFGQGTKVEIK show?
[out] 0.0103 s⁻¹

[in] Please look up its koff: affinity matured h34D10 Fab VH108/VL0 (Fab, V domains shown, Yeast-purified Fab) VH: EVQLVESGGGLVKPGGSLRLSCAASGFTFSAYAMSWVRQAPGKGLVWVASISSDGTTYYPDSVKRQFTISRDNARNTLYLQMNSLRAEDTAVYYCTRGGDYSYALDYWGQGTLVTVSS VL: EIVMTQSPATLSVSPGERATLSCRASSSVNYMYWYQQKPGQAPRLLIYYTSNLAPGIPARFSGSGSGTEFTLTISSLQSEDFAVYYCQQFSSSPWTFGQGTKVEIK
[out] 0.0193 s⁻¹
